tested.target: ScMyo5
assay.info: SPOT peptide array binding signal intensity (averaged, normalized) (arbitrary units (background-subtracted, floor 0; scale differs between SH3 domains)); higher = stronger binding of the SH3 domain to the peptide
Label rule, in plain words: SPOT peptide array binding signal intensity of 2 and up is true (1), under 2 is false (0).

These solved cases illustrate the format of a correct answer.
[[record]]
binder = "RKNRAPPQRPRFNRE"
cat = "true (1)"

[[record]]
binder = "RRLRDKYKLPIVDAD"
cat = "false (0)"

[[record]]
binder = "VFQFQMPTTPISTKM"
cat = "true (1)"

[[record]]
binder = "YVRRRPRVRLEPLLS"
cat = "true (1)"

[[record]]
binder = "GKLKHIPRRPYEIER"
cat = "false (0)"


Query: Does SPOT peptide array binding signal intensity meet or surpass 2 for VPKEPAPAPPPEPDM ?
Result: true (1)

Query: Does SPOT peptide array binding signal intensity meet or surpass 2 for KRKRFNLLLPKPYLT ?
Result: false (0)

Query: Does SPOT peptide array binding signal intensity meet or surpass 2 for TPEIPPPLPPKIMVH ?
Result: true (1)

Query: Does SPOT peptide array binding signal intensity meet or surpass 2 for DFTLPPPPPPPGLDE ?
Result: true (1)

Query: Does SPOT peptide array binding signal intensity meet or surpass 2 for NMLSRPRLAKLPSIR ?
Result: false (0)

Query: Does SPOT peptide array binding signal intensity meet or surpass 2 for SHRLWLYAAPKRPKT ?
Result: true (1)

Query: Does SPOT peptide array binding signal intensity meet or surpass 2 for GRLRPKRIAPWHLIQ ?
Result: false (0)

Query: Does SPOT peptide array binding signal intensity meet or surpass 2 for ATKSASPTLPTRRSR ?
Result: true (1)
